Measured pIC50 on Prothrombin (Homo sapiens) follows.
Lab note — pIC50 values are minus log10 of concentrations in M.

CC(C)=CC(=O)C[C@@H]1C(=O)O[C@H]2CCCC21 (some centres undefined) ... 7.72

Data request: Enter measured pIC50, system Prothrombin (Homo sapiens), for the compound shown: `CC(C)=CC(=O)C[C@@H]1C(=O)O[C@H]2CCC[C@@H]21`
Data returned: 7.68

Data request: Give the observed pIC50 of `O=C1O[C@H]2CCC[C@@H]2[C@H]1Cc1ccccc1` for Prothrombin (Homo sapiens).
Data returned: 4.04

Data request: For Prothrombin (Homo sapiens), give the measured pIC50 of the entry `CC(C)=CC(=O)C[C@H]1C(=O)O[C@H]2C[C@]3(C)C4=CC[C@@H]5[C@](C)(CC[C@H]6OC(=O)[C@@]56C)[C@H]4CC[C@@]3(C)[C@@H]21`
Data returned: 7.34
